System: OVCAR-8 ovarian
assay remarks: NCI tumour cell line growth inhibition, 48 h
assay endpoint: TGI

>>> print(df.to_string())
                                    compound  assay_endpoint    result
 0  Cn1c(=O)c(Oc2ccc(F)cc2F)cc2cnc(NC(CO)CO)nc21             TGI   > 25 µM
 1  Cc1ccccc1NC(=O)C(=O)CC(=O)c1sc(Nc2ccccc2[N+](=O)[O-])nc1C             TGI  > 100 µM
 2  N#CCCSC1SC(=C2SC3=C(SCCS3)S2)SC1SCCC#N (stereo unspecified)             TGI  > 100 µM
 3  CCN(CC)CCC1CCCCN1CC(=O)N1c2ccccc2NC(=O)c2ccccc21 (stereo unspecified)             TGI  > 100 µM
 4                 CN(C)CCCNc1ncnc2nc[nH]c12             TGI  > 100 µM
 5                     O=c1[nH]nc2ccccc2c1Cl             TGI   54.3 µM
 6  COc1ccn2c(C(C)=O)cc(C(=O)c3ccc4c(c3)Sc3ccccc3N4)c2c1             TGI  > 100 µM
 7  CCc1ccccc1N1CCN(C(=O)c2cc(OC)c(OC)c(OC)c2)CC1             TGI   13.6 µM
 8  O=C(c1ccccc1)[C@H]1Nc2ccc(Cl)cc2[C@H]2OCCC[C@@H]12             TGI   41.9 µM
 9         Cc1ccc2cc3c(ccc4ccccc43)c3c2c1CC3             TGI  > 100 µM
10  COc1cc(C[C@H]2C(=O)OC[C@@H]2Cc2ccc(OC)c(OC)c2)cc(OC)c1             TGI  > 100 µM

###

Tested on: HCC-2998 colon
assay remarks: NCI tumour cell line growth inhibition, 48 h
Where a SMILES comes first, the peptide text is derived from it. The star is where a group is joined. Cbz = O=C(OCc1ccccc1)*; Boc = CC(C)(C)OC(=O)*; Bn = c1ccc(C*)cc1

molecule	target entity	TGI
CN(C)CCNC(=O)c1ccc(C(=O)NCCN(C)C)c2nc3ccccc3cc12	HCC-2998 colon	2.98 µM
N=c1c2c(-c3ccccc3)c(-c3ccccc3)n(Cc3ccccc3)c2ncn1CCCO	HCC-2998 colon	7.07 µM
CC(=O)Nc1ccc(/C=N\N2C(=O)c3ccccc3C2=O)cc1	HCC-2998 colon	> 100 µM
N=C(N)C(N=Nc1ccccc1)C(N)=O (configuration not stated)	HCC-2998 colon	> 100 µM
COc1cc(Cn2c(=S)ss/c2=N\C(=S)N(C)C)cc(OC)c1OC	HCC-2998 colon	> 95.4 µM
C=CC1=C[C@@H]2[C@@H]3O[C@]4(CC[C@H](O4)[C@@H](C)C[C@@H](O)C3=O)C[C@H](O)C3=NCC[C@@]32CC1	HCC-2998 colon	< 0.00333 µM
O=C1/C(=C/c2ccc([N+](=O)[O-])o2)Oc2ccc(Br)cc21	HCC-2998 colon	27.5 µM
c1ccc(C(c2ccccc2)[P+](c2ccccc2)(c2ccccc2)c2ccccc2)cc1	HCC-2998 colon	11.7 µM
COP(=O)(OC)C(=NCc1ccccc1)NNc1ccc([N+](=O)[O-])cc1	HCC-2998 colon	> 100 µM
O=c1[nH]nc2ccccc2c1Cl	HCC-2998 colon	7.27 µM
CCc1ccccc1N1CCN(C(=O)c2cc(OC)c(OC)c(OC)c2)CC1	HCC-2998 colon	2.09 µM
COc1ccc(C(=O)COc2cccc(/C=C3\CSc4ccccc4C3=O)c2)cc1	HCC-2998 colon	3.39 µM
COc1ccc(-c2nnc(SCC(=O)Nc3ccc(/C(C)=N\O)cc3)n2-c2ccccc2)cc1OC	HCC-2998 colon	> 100 µM
COCC1N=C(c2cc(OC)c(OC)c(OC)c2-c2cc3c(cc2C2OCCCO2)OCO3)O[C@H]1c1ccccc1 (some centres not stated)	HCC-2998 colon	> 100 µM
c1ccc(-c2cs[s+]c2)cc1	HCC-2998 colon	> 100 µM
O=C1OC(CC(=O)c2ccc(Cl)cc2Cl)C(Cl)=C1Cl (configuration not stated)	HCC-2998 colon	29.4 µM
CCc1cccc2c3c(sc12)C(c1ccc(Cl)cc1)C(C#N)=C(N)O3 (configuration not stated)	HCC-2998 colon	7.42 µM
COc1cc(C[C@H]2C(=O)OC[C@@H]2Cc2ccc(OC)c(OC)c2)cc(OC)c1	HCC-2998 colon	> 100 µM
CC(C)(C)OC(=O)NC(Cc1ccc(OCc2ccccc2)cc1)C(=O)NC(CCCCNC(=O)OCc1ccccc1)C(=O)O (configuration not stated) (Boc-Tyr(Bn)-Lys(Cbz)-OH; configuration not given here)	HCC-2998 colon	> 100 µM
CCN(CCCN(CC)C(=O)Nc1ccccc1)C(=O)Nc1ccccc1	HCC-2998 colon	> 100 µM
Cc1cc(C)c2c(c1)Nc1ccccc1P2c1ccccc1 (configuration not stated)	HCC-2998 colon	60 µM
CCCCCCC#Cc1ccccc1C#CCO	HCC-2998 colon	42.6 µM
CC1=C(C(=O)Nc2cccc(Cl)c2)C(c2ccc([N+](=O)[O-])cc2)C(C(=O)Nc2cccc(Cl)c2)=C(C)N1	HCC-2998 colon	48.2 µM
COc1ccc(C2=NN(C(=O)COc3ccc(Cl)cc3)C(O)(c3ccc(Cl)cc3)C2)cc1 (configuration not stated)	HCC-2998 colon	> 100 µM
COc1ccc2oc(=O)cc(C)c2c1	HCC-2998 colon	> 100 µM
NNC(=O)CCC(=O)Nc1cc(Cl)c(Cl)cc1Cl	HCC-2998 colon	> 100 µM
N#Cc1c(N)nc(N2CCOCC2)c(C#N)c1-c1ccc(Cl)cc1	HCC-2998 colon	99.2 µM
C=CN1C(=O)OC[C@@H]1c1ccccc1	HCC-2998 colon	> 100 µM
N#CCC(=O)c1cc(OCc2cc(OCc3ccc(Br)cc3)cc(OCc3ccc(Br)cc3)c2)cc(OCc2cc(OCc3ccc(Br)cc3)cc(OCc3ccc(Br)cc3)c2)c1	HCC-2998 colon	> 100 µM
CS/C(=N\C(=S)Nc1ccccc1)Nc1ccccc1	HCC-2998 colon	57 µM
CC1CC(c2cccc3c2OCO3)=Nc2ccccc2S1 (configuration not stated)	HCC-2998 colon	> 100 µM
Nc1ccc2nc3ccc(N)cc3[n+](-c3ccccc3)c2c1	HCC-2998 colon	> 100 µM
CCCCCCCCCCCCCCCCCCNc1ccn(C2OC(CO)C(O)C2O)c(=O)n1 (configuration not stated)	HCC-2998 colon	> 100 µM
CCN(CC)CCC1CCCCN1CC(=O)N1c2ccccc2NC(=O)c2ccccc21 (configuration not stated)	HCC-2998 colon	> 100 µM
CC(=O)Nc1ccccc1C=C1c2ccccc2-c2ccccc21	HCC-2998 colon	> 100 µM
COC(=O)[C@@H](O)[C@]1(C(=O)OC)C2O[C@@H](OC)[C@@H]1CCCCCC[C@H]2O	HCC-2998 colon	> 100 µM
O=Cc1cn(Cc2cccc(Cl)c2)c2ccccc12	HCC-2998 colon	26.2 µM
COc1ccc(-c2cc(-c3ccc(Nc4ccnc5cc(Cl)ccc45)cc3)nc(N)c2C#N)cc1	HCC-2998 colon	> 100 µM
CCOP(=O)(OCC)C(Nc1cccc([N+](=O)[O-])c1)c1ccccc1 (configuration not stated)	HCC-2998 colon	> 100 µM
O=C(/C=C/c1ccc(Cl)c(Cl)c1)c1ccc(F)cc1	HCC-2998 colon	32.8 µM
CCOC(=O)C1=C(NNC(=O)Cc2ccccc2)CSC1=Nc1ccccc1	HCC-2998 colon	> 100 µM
C=C1C(=O)OC2C1CC[C@H](C)C13OC(=O)CC1[C@@]23C (some centres not stated)	HCC-2998 colon	> 100 µM

###

Listed next: entries and their corresponding TGI.
System: NCI-H226 lung
assay remarks: NCI tumour cell line growth inhibition, 48 h
assay endpoint: TGI (µM)

In [3]: df
Out[3]:
                                   molecule  target_entity  rel  numeric_result
0  CCN(CCCN(CC)C(=O)Nc1ccccc1)C(=O)Nc1ccccc1  NCI-H226 lung    >             100
1         C=CC(C)(C)C(=C)C(=O)N(C)c1ccccc1I  NCI-H226 lung    >             100
2  Cc1nc2cnc3cc(F)c(-c4ccc(Oc5ncccn5)cc4Cl)cc3c2n1[C@H]1CCN(C(=O)CO)C[C@@H]1F  NCI-H226 lung    =            29.8
3  O=C1c2cc3c(cc2CC12Cc1cc4c(cc1C2=O)CCC4)CCC3  NCI-H226 lung    >             100
4  CN(C(=O)c1ccc(Cl)cc1)C(=S)N1CCN(c2ccccn2)CC1  NCI-H226 lung    >             100
5  COC(=O)c1cc(-c2cc(OC)c(OC)c(OC)c2)[nH]c1N/N=C/c1c(Cl)cccc1Cl  NCI-H226 lung    =            40.3
6  COC(=O)C1C2C=CC(C2)C1(C(=O)OC)S(=O)CC12CCC(CC1O)C2(C)C (stereo not given)  NCI-H226 lung    >             100
7  CCc1ccccc1N1CCN(C(=O)c2cc(OC)c(OC)c(OC)c2)CC1  NCI-H226 lung    =             5.6
8  O=C1/C(=C/c2ccc3c(c2)OCO3)CCC1CN1CCOCC1 (stereo not given)  NCI-H226 lung    =            33.8
9                        Nc1ccn(CCO)c(=O)n1  NCI-H226 lung    >             100
